Each recorded value in this set is attributed to patent US20240400515A1.

Tested on: healthy donor bone marrow cells
Test: Colony formation unit assay in CD34+ healthy donor bone marrow cells
Assay type: cell-based
Details: Homo sapiens, Bone marrow cell, 336 h; methylcellulose culture, 14 days, FIG. 3; read-out: CFU-E: IC50 healthy donors
Method: Sorted CD34^+ cells were plated in 24-well plates at a density of 3×10^4 cells per well in methylcellulose-based medium MethoCult GF H4434 (StemCell Technologies) containing stem cell factor (SCF), interleukin-3 (IL-3), erythropoietin (EPO) and granulocyte macrophage colony stimulating factor (GM-CSF). […] Total cells from colonies formed were counted manually using an inverted microscope/phase contrast microscopy with trypan-blue. […]
RESULT_TYPE: IC50 (µM)
Use µM as the unit, but write only the number.

Field IC50 (entry COc1ccc([C@H]2Cc3[nH]c4ccccc4c3[C@@H](CCNCC3CC3)[C@@H]2N)cc1 [Ic] ) reads 4.6

----------
System: AML primary cells NPM1 WT
Experiment: Viability assay in primary CD34+ cells from AML patients, NPM1 WT
Assay type: cell-based
Conditions: Homo sapiens, FIG. 2
RESULT_TYPE: IC50

Field IC50 (entry COc1ccc([C@H]2Cc3[nH]c4ccccc4c3[C@@H](CCNCC3CC3)[C@@H]2N)cc1 ) reads 5.03 µM
